Species: Rattus norvegicus
Experiment: Open TG-GATES - Regimen: Daily Repeat
Type: toxicity, organism-based, Sprague-Dawley
Parameters: regimen Daily Repeat, gender Male, age 6 weeks
Conditions: in vivo, po, 0 mg/kg, […], route gavage, dose level Control, time 7 day
outcome measure: TERMINAL_BW
Please state the value followed by its unit.

Challenge: Find the recorded TERMINAL_BW belonging to CN(C)[C@@H]1C(O)=C(C(N)=O)C(=O)[C@@]2(O)C(O)=C3C(=O)c4c(O)cccc4[C@@](C)(O)[C@H]3C[C@@H]12 and report it.
Response given: 228 g

Challenge: State the recorded TERMINAL_BW for this entry: Clc1c(Cl)c(Cl)c(Cl)c(Cl)c1Cl
Response given: 255.4 g

Challenge: Consider the compound C1CCC(C(CC2CCCCN2)C2CCCCC2)CC1 (centres undefined) and give its measured TERMINAL_BW.
Response given: 255.2 g

Challenge: Which TERMINAL_BW is reported for this compound? CN1C(C(=O)Nc2ccccn2)=C(O)c2sc(Cl)cc2S1(=O)=O
Response given: 279.8 g

Challenge: Given the compound CC(=O)Nc1nnc(S(N)(=O)=O)s1 [ACETAZOLAMIDE] , what is its reported TERMINAL_BW?
Response given: 260.7 g

Challenge: // query TERMINAL_BW value for entry C#C[C@]1(O)CC[C@H]2[C@@H]3CCC4=Cc5oncc5C[C@]4(C)[C@H]3CC[C@@]21C
Response given: 266.9 g

Challenge: I'd like to know its TERMINAL_BW. The compound in question is Cc1cccc(Nc2ccccc2C(=O)O)c1C
Response given: 261.7 g

Challenge: Quick one: TERMINAL_BW for CC(CN1c2ccccc2Sc2ccccc21)N(C)C (centres undefined) ?
Response given: 267.8 g

Challenge: If you can, please state the reported TERMINAL_BW value of CCOC(=O)[C@H](CCc1ccccc1)N[C@@H](C)C(=O)N1CCC[C@H]1C(=O)O .
Response given: 279.2 g
